Hi there, I'd appreciate the recorded growth for every entry that follows.
System: MDA-MB-231 breast
Experiment: NCI-60 one-dose screen, 48 h (100 = growth as untreated, 0 = no growth, -100 = all killed)
Settings: 10 µM unless noted
Compounds without any hit were thinned out: in the full panel of roughly 83,000, 20% have a hit.
Answers are plain numbers, in %.

CCCCc1n(Cc2ccc3ccccc3c2)cc[n+]1Cc1ccc2ccccc2c1 = -92.9
COc1ccc(CC(=O)Nc2nn3c(-c4cc(C(F)(F)F)cc(C(F)(F)F)c4)nnc3s2)cc1 = 88
CSc1nc(-c2ccc(O)cc2O)c2c(=O)[nH]c(Nc3ccc(S(=O)(=O)Nc4nc(C)cc(C)n4)cc3)nc2n1 = 100
Cc1cc(=O)oc2cc(OCCn3c(C)nn(-c4ccc(Cl)cc4)c3=O)ccc12 = 47.5
O=C(/C=C/c1ccc(C(F)(F)F)cc1)c1ccc(Nc2nc(NCCO)nc(NCCO)n2)cc1 = 71

# map each molecule to its growth
1. N#Cc1c(-c2ccccc2)cc(-c2ccccc2)n(CCCC(=O)O)c1=O
2. NS(=O)(=O)c1cc2c(cc1Cl)NC=NS2(=O)=O
3. Cc1n(Cc2ccc3ccccc3c2)c2ccccc2[n+]1Cc1ccc2ccccc2c1
4. COC(=O)C1(NC(=O)CNC(=O)OCc2ccccc2)CCCC1
5. c1ccc2c(-c3nc4ccccc4[nH]3)cccc2c1

*A*
1: 94.9; 2: 113; 3: -83.6; 4: 95.8; 5: 41.4
